assay.system: Interleukin-23 receptor (Homo sapiens, UniProt Q5VWK5)
assay.details: Inhibition of interleukin-23 binding to human interleukin-23 receptor incubated for 2 hrs by competitive binding ELISA
Where a SMILES comes first, the peptide text is derived from it.
Would you kindly list IC50 for each of these compounds?

Param readout = IC50; param system = Interleukin-23 receptor (Homo sapiens, UniProt Q5VWK5); param query = C[C@@H](O)[C@H](NC(=O)[C@@H](N)CS)C(=O)N[C@@H](CC(=O)O)C(=O)N[C@@H](Cc1c[nH]c2ccccc12)C(=O)N[C@@H](CCCCN)C(=O)N[C@@H](CS)C(=O)N[C@@H](Cc1ccc(O)cc1)C(=O)N[C@@H](Cc1c[nH]c2ccccc12)C(=O)N[C@@H](Cc1cnc[nH]1)C(=O)N[C@@H](CCC(=O)O)C(=O)N[C@@H](Cc1ccccc1)C(=O)NCC(N)=O (H-CTDWKCYWHEFG-NH2) ; response: value
500 to 1000 nM

// lookup IC50 | system=Interleukin-23 receptor (Homo sapiens, UniProt Q5VWK5) | key= CC(=O)N[C@@H](CS)C(=O)N[C@@H](C)C(=O)N[C@@H](CC(=O)O)C(=O)N[C@@H](Cc1c[nH]c2ccccc12)C(=O)N[C@H](C(=O)N[C@@H](CS)C(=O)N[C@@H](Cc1ccc(O)cc1)C(=O)N[C@@H](Cc1c[nH]c2ccccc12)C(=O)N[C@@H](Cc1cnc[nH]1)C(=O)N[C@H](C(=O)N[C@@H](Cc1ccccc1)C(=O)NCC(=O)NCCOCC(=O)N[C@H](CCCCN)C(=O)O)[C@@H](C)O)C(C)C
< 500 nM

Checklist item: IC50 tested on Interleukin-23 receptor (Homo sapiens, UniProt Q5VWK5), entry CC(=O)NCCCC[C@H](NC(=O)[C@](C)(CC(C)C)NC(=O)[C@H](Cc1ccc2ccccc2c1)NC(=O)[C@H](Cc1ccc(OCCN)cc1)NC(=O)[C@@H](NC(=O)[C@H](CCC(N)=O)NC(=O)[C@H](Cc1c[nH]c2ccccc12)NC(=O)[C@@H](NC(=O)[C@H](CCC(N)=O)NC(=O)[C@@H](NC(C)=O)C(C)(C)S)[C@@H](C)O)C(C)(C)S)C(=O)N[C@@H](CC(N)=O)C(=O)N[C@@H](CC(N)=O)C(N)=O , value?
< 10 nM

---

Hi there, I'd appreciate the recorded pIC50 for every entry that follows.
assay.system: Interleukin-23 receptor (Homo sapiens)
Sequence (Q5VWK5 whole entry): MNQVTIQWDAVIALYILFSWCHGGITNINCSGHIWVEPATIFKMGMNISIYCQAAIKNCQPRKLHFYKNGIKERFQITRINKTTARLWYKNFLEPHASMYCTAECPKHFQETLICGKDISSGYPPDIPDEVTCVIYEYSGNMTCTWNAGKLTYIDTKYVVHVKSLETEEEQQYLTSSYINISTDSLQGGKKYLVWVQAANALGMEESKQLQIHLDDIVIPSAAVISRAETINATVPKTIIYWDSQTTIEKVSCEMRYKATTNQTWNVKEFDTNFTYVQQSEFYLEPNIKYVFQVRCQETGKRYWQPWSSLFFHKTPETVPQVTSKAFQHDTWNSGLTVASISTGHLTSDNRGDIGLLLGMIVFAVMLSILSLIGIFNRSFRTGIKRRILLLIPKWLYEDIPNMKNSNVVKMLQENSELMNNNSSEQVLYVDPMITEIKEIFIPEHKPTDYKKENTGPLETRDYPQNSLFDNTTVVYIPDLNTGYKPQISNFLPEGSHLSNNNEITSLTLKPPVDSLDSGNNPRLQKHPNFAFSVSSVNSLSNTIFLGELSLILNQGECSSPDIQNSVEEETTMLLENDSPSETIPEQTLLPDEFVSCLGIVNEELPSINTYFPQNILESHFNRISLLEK
assay.details: Inhibition of interleukin-23 receptor in human natural killer cells assessed as reduction in IL23/IL18-induced IFNgamma production incubated for 20 to 24 hrs by ELISA
Assay type: cell-based
pIC50: −log10 of the molar value. *1 amine or outer side, *2 acyl side, *3 side chain or, on linkers, in order; H or OH if unused. Where a SMILES comes first, the peptide text is derived from it. Bridges are numbered along the chain shown (N, C = ends). [ ]: non-standard residue; d: D form. Abu(4-yl) = O=C([C@H](CC[*:3])N[*:1])[*:2]; 2Nal = N[C@@H](Cc1ccc2ccccc2c1)C(=O)O; AEF = NCCOc1ccc(C[C@H](N)C(=O)O)cc1; Aib = CC(C)(N)C(=O)O

So what does the record say about pIC50 for COc1ccc(C[C@H](NC(=O)[C@@H](NC(=O)[C@H](CCC(N)=O)NC(=O)[C@H](Cc2c[nH]c3ccccc23)NC(=O)[C@@H](NC(=O)[C@H](CC(N)=O)NC(=O)[C@@H](NC(=O)[C@@H](Cc2ccccc2)NC(C)=O)C(C)(C)S)[C@@H](C)O)C(C)(C)S)C(=O)N[C@@H](Cc2ccc3ccccc3c2)C(=O)NC2(C(=O)N[C@@H](CCCNC(N)=O)C(=O)N[C@@H](CC(N)=O)C(=O)N[C@@H](CC(N)=O)C(N)=O)CCCCC2)cc1 ?
> 8.00

Could you share which pIC50 value was measured for CC(=O)NCCCC[C@H](NC(=O)[C@@](C)(NC(=O)[C@H](Cc1ccc2ccccc2c1)NC(=O)[C@H](Cc1ccc(C(N)=O)cc1)NC(=O)[C@@H](NC(=O)[C@H](CCC(N)=O)NC(=O)[C@H](Cc1c[nH]c2ccccc12)NC(=O)[C@@H](NC(=O)[C@H](CCC(N)=O)NC(=O)[C@@H](NC(C)=O)C(C)(C)S)[C@@H](C)O)C(C)(C)S)C(C)C)C(=O)N[C@@H](CC(N)=O)C(=O)N[C@@H](CC(N)=O)C(N)=O ?
7.60 to 8.00

Could you tell me which pIC50 is on file for CC(=O)N[C@H]1CCSC[C@@H](C(=O)N[C@@H](Cc2ccc(O)cc2)C(=O)N[C@@H](Cc2ccc3ccccc3c2)C(=O)N[C@@](C)(CC(C)C)C(=O)N[C@@H](CCC(=O)O)C(=O)N[C@@H](CC(N)=O)C(=O)NCC(N)=O)NC(=O)[C@H](CCC(N)=O)NC(=O)[C@H](Cc2c[nH]c3ccccc23)NC(=O)[C@H]([C@@H](C)O)NC(=O)[C@H](CCC(N)=O)NC1=O ?
> 7.60

Give its pIC50 value. Item: CC(=O)N[C@H]1CCSC[C@@H](C(=O)N[C@@H](Cc2ccc(OCCN)cc2)C(=O)N[C@@H](Cc2ccc3ccccc3c2)C(=O)NC(C)(C)C(=O)N[C@@H](CCC(N)=O)C(=O)N[C@@H](CC(N)=O)C(=O)NCC(N)=O)NC(=O)[C@H](CCC(N)=O)NC(=O)[C@H](Cc2c[nH]c3ccccc23)NC(=O)[C@H]([C@@H](C)O)NC(=O)[C@H](CCC(N)=O)NC1=O (Ac-[Abu(4-yl)]QTWQC[AEF][2Nal][Aib]QNG-NH2; thioether 1-6)
> 7.60

Fill in: pIC50 of CC(=O)NCCCC[C@H](NC(=O)C(C)(C)NC(=O)[C@H](Cc1ccc2ccccc2c1)NC(=O)[C@H](Cc1ccc(OCCN)cc1)NC(=O)[C@@H](NC(=O)[C@H](CCC(N)=O)NC(=O)[C@H](Cc1c[nH]c2ccccc12)NC(=O)[C@@H](NC(=O)[C@H](CC(N)=O)NC(=O)[C@@H](NC(C)=O)C(C)(C)S)[C@@H](C)O)C(C)(C)S)C(=O)N[C@@H](CC(N)=O)C(=O)NCCC(N)=O is ___
> 8.00

---

Field: half-life at 20 µM. Provide a value for each of the compounds that follow.
assay.details: Half life in simulated intestinal fluid at 20 uM by LC-MS/MS analysis
Format: ADME

Find the recorded half-life at 20 µM belonging to CC(=O)NCCCC[C@H](NC(=O)C(C)(C)NC(=O)[C@H](Cc1ccc2ccccc2c1)NC(=O)[C@H](Cc1ccc(OCCN)cc1)NC(=O)[C@@H](NC(=O)[C@H](CCC(N)=O)NC(=O)[C@H](Cc1c[nH]c2ccccc12)NC(=O)[C@@H](NC(=O)[C@@H](NC(=O)[C@@H](NC(C)=O)C(C)(C)S)[C@@H](C)O)[C@@H](C)O)C(C)(C)S)C(=O)N[C@@H](CC(N)=O)C(=O)N[C@@H](CC(N)=O)C(N)=O and report it.
> 6 h

# get_value(readout='half-life at 20 µM', item= CC[C@H](NC(=O)[C@H](CC(N)=O)NC(=O)[C@H](CCCCNC(C)=O)NC(=O)C(C)(C)NC(=O)[C@H](Cc1ccc2ccccc2c1)NC(=O)[C@H](Cc1ccc(OC)cc1)NC(=O)[C@@H](NC(=O)[C@H](CCC(N)=O)NC(=O)[C@H](Cc1c[nH]c2ccccc12)NC(=O)[C@@H](NC(=O)[C@H](CC(N)=O)NC(=O)[C@@H](NC(C)=O)C(C)(C)S)[C@@H](C)O)C(C)(C)S)C(N)=O )
3 to 6 h

Would you mind telling me what half-life at 20 µM value was observed for CC(=O)NCCCC[C@](C)(NC(=O)[C@H](Cc1ccc2ccccc2c1)NC(=O)[C@H](Cc1ccc(OCCNC(C)=O)cc1)NC(=O)[C@@H](NC(=O)[C@H](CCC(N)=O)NC(=O)[C@H](Cc1c[nH]c2ccccc12)NC(=O)[C@@H](NC(=O)[C@](C)(CCCNC(C)=O)NC(=O)[C@@H](NC(C)=O)C(C)(C)S)[C@@H](C)O)C(C)(C)S)C(=O)N[C@@H](CCC(=O)O)C(=O)N[C@@H](CC(N)=O)C(=O)NCC(N)=O ?
1 to 2 h
